Tested on: rape
Assay: Test B pre/postemergence rape
Format: in vivo, Brassica napus
Conditions: Rate 62 g/ha, Postemergence; scale of 0 to 10 where 0 is no effect and 10 is complete control
reported endpoint: Rape plant response rating

Solved cases below.
CCN(Cc1ccncc1)C(=O)n1oc(=O)n(C(C)C)c1=O 0
CC(C)N(C(=O)n1oc(=O)n(C2(C)CC2)c1=O)c1ccc(F)cc1 0
CC(C)N(C(=O)n1oc(=O)n(C(CF)CF)c1=O)c1ccc(F)cc1 7

## Input Requested read-out: Rape plant response rating. Entry: "Cc1onc(-c2ccccc2)c1-n1c(=O)on(C(=O)N(c2ccc(F)cc2)C(C)C)c1=O"
## Output 0

###

Tested on: wild oat
Test: Test B pre/postemergence wild oat
Type: in vivo, Avena fatua
Conditions: Preemergence, Rate 125 g/ha; scale 0 to 10, 0 is no effect, 10 is complete control
reported endpoint: Wild oats plant response rating
Reply with just the number.

Solved cases below.
COCCOCn1c(=O)on(C(=O)N(c2ccccc2)C(C)C)c1=O 0
CC(C)=CCn1c(=O)on(C(=O)N(c2ccc(F)cc2F)C(C)C)c1=O 5
CC(C)N(C(=O)n1oc(=O)n(CC2=CCCCC2)c1=O)c1ccccc1 0

## Input Missing value: Wild oats plant response rating, wild oat, entry "CC(C)C(=O)Cn1c(=O)on(C(=O)N(c2ccc(F)cc2F)C(C)C)c1=O" . Fill in?
## Output 3

## Input Missing value: Wild oats plant response rating, wild oat, entry "CC(C)N(C(=O)n1oc(=O)n(CCC2OCCCO2)c1=O)c1ccc(F)cc1F" . Fill in?
## Output 9

## Input Missing value: Wild oats plant response rating, wild oat, entry "CCCCn1c(=O)on(C(=O)N(c2ccccc2)C(C)C)c1=O" . Fill in?
## Output 0

###

System: blackgrass
Experiment: Test B pre/postemergence blackgrass
Assay type: in vivo, Alopecurus myosuroides
Settings: Postemergence, Rate 125 g/ha; scale 0 to 10, 0 is no effect, 10 is complete control
reported endpoint: Plant response rating, Blackgrass
Reply with just the number.

Solved cases below.
CC(C)N(C(=O)n1oc(=O)n(CC2CCC2)c1=O)c1ccc(F)cc1 9
CC(C)N(C(=O)n1oc(=O)n(N2CCOCC2)c1=O)c1ccc(F)cc1F 4
C=C(C)CCn1c(=O)on(C(=O)N(c2ccccc2)C(C)C)c1=O 4

## Input Requested read-out: Plant response rating, Blackgrass. Entry: "CC(C)N(C(=O)n1oc(=O)n(C2(C)CC2)c1=O)c1ccc(F)cc1"
## Output 8

###

Recorded Giant foxtail plant response rating by entry
System: giant foxtail
Assay: Test B pre/postemergence giant foxtail
Assay type: in vivo, Setaria faberii
Conditions: Rate 62 g/ha, Postemergence; scale 0 to 10, 0 no effect, 10 complete control
Reply with just the number.

Solved cases below.
compound	Giant foxtail plant response rating
CC(Cl)=CCn1c(=O)on(C(=O)N(c2ccc(F)cc2)C(C)C)c1=O [Compound 285]	0
CC(C)N(C(=O)n1oc(=O)n(CC2=CCCN(C)C2)c1=O)c1ccccc1 [Compound 497]	0

## Input Requested read-out: Giant foxtail plant response rating. Entry: COCC(C)N(C(=O)n1oc(=O)n(-c2ccccc2C)c1=O)c1ccc(F)cc1 (stereo not drawn) [Compound 324]
## Output 0

## Input Requested read-out: Giant foxtail plant response rating. Entry: CC(C)N(C(=O)n1oc(=O)n(C2CC2)c1=O)c1ccc(F)cc1F [Compound 299]
## Output 7

## Input Requested read-out: Giant foxtail plant response rating. Entry: CC(C)N(C(=O)n1oc(=O)n(COCC[Si](C)(C)C)c1=O)c1ccc(Cl)cc1 [Compound 467]
## Output 0

## Input Requested read-out: Giant foxtail plant response rating. Entry: CC(C)N(C(=O)n1oc(=O)n(CCC#N)c1=O)c1ccccc1 [Compound 436]
## Output 0

###

Test system: pigweed
Assay: Test B pre/postemergence pigweed
Assay type: in vivo, Amaranthus retroflexus
Conditions: Preemergence, Rate 250 g/ha
reported endpoint: Redroot pigweed plant response rating (0 to 10 scale)

Solved cases below.
CCCCn1c(=O)on(C(=O)N(c2ccccc2)C(C)C)c1=O 5
COC(=O)CCCn1c(=O)on(C(=O)N(c2ccc(Cl)cc2)C(C)C)c1=O 9
CCOCn1c(=O)on(C(=O)N(c2ccc(Cl)cc2)C(C)C)c1=O 0

Now let's try a different one.
## Input Requested read-out: Redroot pigweed plant response rating (0 to 10 scale). Entry: "COCCOCn1c(=O)on(C(=O)N(c2ccccc2)C(C)C)c1=O"
## Output 3

###

Tested on: surinam grass
Test: Test B pre/postemergence surinam grass
Format: in vivo, Brachiaria decumbens
Details: Postemergence, Rate 250 g/ha; scale of 0 to 10, 0 is no effect, 10 is complete control
Recorded B. signalgrass plant response rating by entry
Reply with just the number.

Solved cases below.
compound	B. signalgrass plant response rating
C=CCn1c(=O)on(C(=O)N(c2c(C)cccc2C)C(C)COC)c1=O (stereo not shown)	0
CC(C)N(C(=O)n1oc(=O)n(CCCC#N)c1=O)c1ccc(F)cc1F	8
C=C(Cn1c(=O)on(C(=O)N(c2ccccc2)C(C)C)c1=O)C(C)C	0

Now let's try a different one.
## Input Requested read-out: B. signalgrass plant response rating. Entry: "CC(C)N(C(=O)n1oc(=O)n(Cc2nnc(Cl)s2)c1=O)c1ccc(F)cc1"
## Output 0

###

System: crabgrass
Assay: Test B pre/postemergence crabgrass
Type: in vivo, Digitaria sanguinalis
Conditions: Rate 1000 g/ha, Preemergence; scale 0 to 10 (0 no effect, 10 complete control)
Recorded Plant response rating, Crabgrass by entry

Solved cases below.
compound	value
CC(C)N(C(=O)n1oc(=O)n(C2CCCC(C(F)(F)F)C2)c1=O)c1ccc(F)cc1 (stereo not drawn)	9
CCOP(=O)(OCC)C(C)n1c(=O)on(C(=O)N(c2ccccc2)C(C)C)c1=O (stereo not drawn)	9

Now let's try a different one.
## Input Requested read-out: Plant response rating, Crabgrass. Entry: "CCN(C(=O)n1oc(=O)n(N(C)c2ccccc2)c1=O)C1CCCCC1"
## Output 0

###

Tested on: morningglory
Assay: Test B pre/postemergence morningglory
Assay type: in vivo, Ipomoea hederacea
Conditions: Rate 250 g/ha, Postemergence; scale 0 to 10, 0 is no effect, 10 is complete control
reported endpoint: Morningglory plant response rating
Reply with just the number.

## Input Requested read-out: Morningglory plant response rating. Entry: "CC(C)N(C(=O)n1oc(=O)n(CCN(C)C(=O)c2ccccc2)c1=O)c1ccccc1"
## Output 7

## Input Requested read-out: Morningglory plant response rating. Entry: "CCOP(=O)(Cn1c(=O)on(C(=O)N(c2ccc(F)cc2F)C(C)C)c1=O)OCC"
## Output 6

## Input Requested read-out: Morningglory plant response rating. Entry: CC(C)N(C(=O)n1oc(=O)n(C(C)C2=NOCC2)c1=O)c1ccc(Cl)cc1 (racemic)
## Output 3

## Input Requested read-out: Morningglory plant response rating. Entry: "CC(C)N(C(=O)n1oc(=O)n(CC(F)F)c1=O)c1ccc(Cl)cc1"
## Output 3

###

System: bedstraw
Test: Test B pre/postemergence bedstraw
Format: in vivo, Galium aparine
Settings: Preemergence, Rate 500 g/ha; scale 0 to 10 (0 no effect, 10 complete control)
reported endpoint: Bedstraw plant response rating
Reply with just the number.

Solved cases below.
compound	value
COc1ccccc1Cn1c(=O)on(C(=O)N(c2ccc(F)cc2)C(C)C)c1=O	0
CC(C)N(C(=O)n1oc(=O)n(N(C)c2ccccc2)c1=O)c1ccc(F)cc1	10

## Input Requested read-out: Bedstraw plant response rating. Entry: "CCN(C(=O)n1oc(=O)n(C(C)C)c1=O)c1nncs1"
## Output 4

## Input Requested read-out: Bedstraw plant response rating. Entry: "CC(C)N(C(=O)n1oc(=O)n(C(C)C)c1=O)c1ccc(F)cc1F"
## Output 10

## Input Requested read-out: Bedstraw plant response rating. Entry: "COc1nc(OC)nc(N(C(=O)n2oc(=O)n(-c3c(C)cccc3C)c2=O)C(C)C)n1"
## Output 0

## Input Requested read-out: Bedstraw plant response rating. Entry: "CC(C)N(C(=O)n1oc(=O)[nH]c1=O)c1ccc(F)cc1"
## Output 0

## Input Requested read-out: Bedstraw plant response rating. Entry: "C=CCn1c(=O)on(C(=O)N(c2ccc(F)cc2)C(C)C)c1=O"
## Output 7

## Input Requested read-out: Bedstraw plant response rating. Entry: "CC(C)N(C(=O)n1oc(=O)n(C(C)(C)C)c1=O)c1ccccc1"
## Output 0

## Input Requested read-out: Bedstraw plant response rating. Entry: CC(C)N(C(=O)n1oc(=O)n(C2CCCC(C(F)(F)F)C2)c1=O)c1ccc(F)cc1 (stereo not drawn)
## Output 2

###

Recorded Plant response rating, Rape by entry
System: rape
Assay: Test B pre/postemergence rape
Type: in vivo, Brassica napus
Conditions: Preemergence, Rate 500 g/ha; scale of 0 to 10 where 0 is no effect and 10 is complete control
Experimental: […] At the same time, these crop and weed species were also treated with postemergence applications of test chemicals formulated in the same manner. […] Treated plants and controls were maintained in a greenhouse for twelve to sixteen days, after which all species were compared to controls and visually evaluated. […]

Solved cases below.
molecule	tested on	value
Cc1nc(C)c(-n2c(=O)on(C(=O)N(c3ccc(Cl)cc3)C(C)C)c2=O)s1	rape	0
CCOC(=O)CC(C(=O)OCC)n1c(=O)on(C(=O)N(c2ccc(F)cc2)C(C)C)c1=O (stereo not shown)	rape	0
CC(C)N(C(=O)n1oc(=O)n(CC(=O)C2CCC2)c1=O)c1ccc(F)cc1	rape	6

## Input Requested read-out: Plant response rating, Rape. Entry: "CC(C)N(C(=O)n1oc(=O)n(Cc2nnc(Cl)s2)c1=O)c1ccc(F)cc1"
## Output 0

## Input Requested read-out: Plant response rating, Rape. Entry: "CC(C)N(C(=O)n1oc(=O)n(CC(C)(C)C)c1=O)c1ccccc1"
## Output 10

## Input Requested read-out: Plant response rating, Rape. Entry: "CCN(C(=O)n1oc(=O)n(C)c1=O)C1CCCCC1"
## Output 0

## Input Requested read-out: Plant response rating, Rape. Entry: "CC(C)N(C(=O)n1oc(=O)n(Cc2nnc(Cl)s2)c1=O)c1ccc(Cl)cc1"
## Output 0

Source of measurements: patent US6737383B1
